Test system: human gammaherpesvirus 4
Assay: Inhibition of TPA-induced EBV-early antigen activation in human Raji cells assessed as reduction in EBV-EA positive cells at 10 molar ratio per TPA after 48 hrs by indirect immunofluorescence method relative to TPA; values are per cent of control
MEASURE: level, % of control (%)
Answers are plain numbers, in %.

# MOLECULE, RESULT UNITS, MEASURED RESULT
data = [
    ("COc1c(CCC(C)C)c2c(c(O)c1C(C)=O)CC(O)C(C)(C)O2 (stereo not given)", "%", 97.8),
    ("COc1c(CC=C(C)C)c2c(c(O)c1C(C)=O)CC(O)C(C)(C)O2 (racemic)", "%", 96.9),
    ("COc1c2c(cc(O)c1C(C)=O)OC(O)C2 (racemic)", "%", 100),
    ("COc1c(CC=C(C)C)c(O)c2c(c1C(C)=O)OC(C)(C)C(O)C2 (racemic)", "%", 96.6),
]

Please look at the following molecule next.
Noted for COc1c2c(c(CCC(C)C)c(O)c1C(C)=O)OC(C)(C)C(O)C2 (racemic) : its level, % of control reads 97.7

* * *

Kindly supply the reported pIC50 values for the records listed here.
Assay: Inhibition of TPA-induced EBV-early antigen activation in human Raji cells after 48 hrs by indirect immunofluorescence method
Assay type: cell-based, human gammaherpesvirus 4
Answers are plain numbers, as −log10 of the molar value.

Consider the reported pIC50 for these compounds:
# COMPOUND, MEASURED RESULT
records = [
    ("COc1cc(/C=C/C(=O)CC(=O)/C=C/c2ccc(O)c(OC)c2)ccc1O", 4.92),
    ("COc1c2c(cc(O)c1C(C)=O)OC(O)C2 (racemic)", 4.80),
    ("COc1c2c(c(CC=C(C)C)c(O)c1C(C)=O)OC(C)(C)C(O)C2 (racemic)", 5.14),
    ("COc1c2c(c(CC=C(C)C)c(O)c1C(C)=O)OC(C(C)(C)O)C2 (racemic)", 5.11),
    ("COc1c(CC=C(C)C)c(O)c2c(c1C(C)=O)OC(C)(C)C(O)C2 (racemic)", 5.08),
]

Please look at the following compound next.
Noted for COc1c2c(c(CC=C(C)C)c(OC(C)=O)c1C(C)=O)OC(C(C)(C)O)C2 (stereo unspecified) : its pIC50 reads 5.02

* * *

Kindly supply the reported level, % of control values for the records listed here.
Test system: human gammaherpesvirus 4
Test: Inhibition of TPA-induced EBV-early antigen activation in human Raji cells assessed as reduction in EBV-EA positive cells at 10 molar ratio per TPA after 48 hrs by indirect immunofluorescence method relative to TPA; values are per cent of control
Numbers only, in %.

Consider the reported level, % of control for these compounds:
# COMPOUND, SYSTEM NAME, level, % of control / %
data = [
    ("COc1c(CC=C(C)C)c2c(c(O)c1C(C)=O)CC(C(C)(C)O)O2 (racemic)", "human gammaherpesvirus 4", 94.9),
    ("COc1c(CC=C(C)C)c2c(c(OC(C)=O)c1C(C)=O)CC(C(C)(C)O)O2 (stereo unspecified)", "human gammaherpesvirus 4", 100),
    ("COc1c2c(c(CC=C(C)C)c(OC(C)=O)c1C(C)=O)OC(C(C)(C)O)C2 (stereo unspecified)", "human gammaherpesvirus 4", 97.8),
    ("COc1c2c(c(CC=C(C)C)c(O)c1C(C)=O)OC(C(C)(C)O)C2 (racemic)", "human gammaherpesvirus 4", 93.3),
    ("COc1c2c(c(CC=C(C)C)c(O)c1C(C)=O)OC(C)(C)C(O)C2 (racemic)", "human gammaherpesvirus 4", 92.4),
]

Noted for "COc1cc(/C=C/C(=O)CC(=O)/C=C/c2ccc(O)c(OC)c2)ccc1O" : its level, % of control reads 100
